Test: inhibitors of hydroxyurea-induced Chk1 phosphorylation, primary screen, imaging, HeLa, phospho-Chk1 antibody, percent positive cells (AID 1186)
Conditions: hydroxyurea-induced phospho-Chk1 immunofluorescence imaging, higher = more signal
Rule: z-score under 0.2 gives 0.0, otherwise 1.0.

Examples with answers:
Molecule: CN(C)CCCC[C@@H]1NC(=O)[C@H]2C[C@@H](C(=O)O)[C@@H](c3cccc(OCCO)c3)N2C1=O
Label value: 0.0
--
Molecule: CCOC(=O)C[C@H]1[C@H](OC(=O)c2cc3ccccc3oc2=O)[C@@H](NC(=O)C2CCCCC2)c2cc(OCCCO)ccc2N1C(=O)Cc1ccc(OC)cc1
Label value: 1.0
--
Molecule: NCCCC[C@@H]1NC(=O)[C@H]2C[C@@H](C(=O)NCc3ccc(F)cc3)[C@@H](c3cccc(OCCO)c3)N2C1=O
Label value: 0.0
--
Molecule: COCCOC(=O)N1C(=O)[C@@]2(c3cc(C#CC4(O)CCCCCC4)ccc31)[C@H](c1ccc(OCCO)cc1)N1[C@H](c3ccccc3)[C@H](c3ccccc3)OC(=O)[C@H]1[C@@H]2C(N)=O
Label value: 0.0
--
Molecule: CC#CCO[Si](C#CCCCCCC)(C(C)C)C(C)C
Label value: 0.0

Query: Does the reported z-score for `CN(C)CCCNC(=O)[C@@]1(Cc2ccccc2I)c2ccccc2C(=O)N(Cc2ccccc2)[C@H]1c1ccc(CO)cc1` fall at or above the 0.2 mark?
Response: 1.0

Query: Dear colleague, could you confirm whether C=CCC(OC(C)=O)[C@@H]1[C@@H](N(Cc2cc3ccccc3o2)C(=O)Cc2ccc(OC)cc2)c2cc(OCCCO)ccc2N1C(=O)Cc1ccc(OC)cc1 (some centres not stated) has z-score at or above 0.2?
Response: 1.0

----------
Experiment: HepG2 cell viability effects, profiling panel, calcein-AM fluorescence, 48 h, basal (AID 1164); note: test concentration not given here
Conditions: higher = more signal
Short version: z-score at least 0.3 is t, less is f.

Compound: C=CC[C@@]1(C(=O)O)N=C(c2ccc(OCCCO)cc2)O[C@@H]1c1ccccc1CN=[N+]=[N-]
Label value: t

Query: hey, is z-score for this one >= 0.3? `NCCCC[C@@H]1NC(=O)[C@H]2C[C@@H](C(=O)O)[C@@H](c3cccc(OCCO)c3)N2C1=O`
Response: f

Query: hey, is z-score for this one >= 0.3? `Cc1ccc(S[C@]2(C(=O)NCC(F)(F)F)CC(=O)N(C3CCCCC3)[C@@H]2c2ccc(CO)cc2)cc1`
Response: t

Query: Assess whether reported z-score for CCCCC(O)C1C=CC2C(=O)N(C)C(=O)C2N1Nc1ccccc1 (stereo not drawn) sits at 0.3 or higher.
Response: f

Query: Identify whether the reported z-score of the following compound is 0.3 or greater: `CCOC(=O)C1=C[C@@H](C(C)(C)C)N(S(=O)(=O)c2ccc(C)cc2)[C@H]1c1ccccc1Cl`
Response: f

Query: Evaluate `COCCn1c(C(=O)N2CCCC2)cc2c1C[C@H]1CN(C(=O)c3ccccc3)[C@@](Cc3ccccc3)(C(=O)OC)[C@@H]21` : z-score at minimum 0.3?
Response: f

Query: Does z-score meet or surpass 0.3 for `CCCCCCc1nc(-c2ccc(OC)nc2)cc2c1[Si](C(C)C)(C(C)C)OC2` ?
Response: f

Query: Tell me whether z-score is at least 0.3 here: `CO[C@H]1O[C@H](CO)[C@@H](OC(=O)Nc2ccccc2)[C@@H]2OC(=O)[C@H](Cc3ccccc3)C/C=C/C[C@@H](Cc3ccccc3)C(=O)O[C@@H]12`
Response: t
